Origin of values: PubChem BioAssay (NCATS)

# TEST: Stat Signaling Pathway (AID 446);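 further: ME-180 cervical cancer cells given 40 pM IL-6 alongside compound; SIE-controlled beta-lactamase reporter measured as 460/530 nm FRET emission ratio; on the % scale 0 is the no-effect control and ±100 the full control effect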
# PARTICULARS: ME-180 (cervical carcinoma) SIE beta-lactamase reporter, IL-6 stimulated, 5 h; at 7.69 µM (top of the series) unless noted
Inconclusive results are not listed.
REPORTED ENDPOINT: activity, negative = inhibition (%)
Supply the numeric figure in %, leaving out any unit text.

// known answers, use as guide
COc1ccc(C(=O)N2CCC[C@@]3(CCN(Cc4cc(C(F)(F)F)cc(C(F)(F)F)c4)C3)C2)cc1 = -1.38
Cc1cccc(CNc2cc(-c3ccccc3Cl)ncn2)c1 = 0.338
c1ncc(-c2ccc3c(c2)OCO3)c(NCCc2cnc[nH]2)n1 = -11.2
O=C(c1cnccn1)N1CCC2(CC1)CCN(c1ccccn1)CC2 = 3.98
CS(=O)(=O)N1CCC2(CCCN(Cc3ccc(C#N)cc3)C2)CC1 = -15

Please report the recorded activity, negative = inhibition for COc1ccccc1CN1CCCC2(CCN(C(=O)c3cccn3C)CC2)C1 .
4.46

And then O=C(Nc1cccc(F)c1)N1CCC2(CC1)CCN(C(=O)c1cccc(F)c1)CC2 , what is it?
-6.46

And then COc1ccc2[nH]cc(CCNc3nc(-c4cccc(NS(C)(=O)=O)c4)nc4ccccc34)c2c1 , what is it?
-28.4

And then Cc1noc(C)c1C(=O)N1CCC2(CCCN(c3ncccn3)C2)CC1 , what is it?
-4.43

And then COc1cccc(Nc2ncc3nc(C)c(=O)n(CCC#N)c3n2)c1 , what is it?
-8.39

====

# System: DIV30
# TEST: qHTS profiling for inhibitors of Plasmodium falciparum proliferation (AID 504749); further: nearly all actives have a fitted effect of over 60% in size
# PARTICULARS: P. falciparum in erythrocytes, SYBR Green DNA, 72 h; series mostly up to 12.8 µM
Records with an inconclusive call do not appear. Activity calls are given as the source filed them. Calls follow the shape of the dose curve; as a rule, active = well fitted inhibition curve with a large enough effect; inconclusive = small, poorly fitted or top-dose-only effect; inactive = flat fitted curve, though single readings scatter.
Pick one and only one: TRUE = active, FALSE = inactive

Record lookup: outcome of this test for O=c1[nH]cnc2c1ncn2C1OC(CO)C(O)C1O (stereo not given) ?
FALSE

====

Listing: activity change, negative = inhibition of selected compounds
# TEST: NFAT Signaling Pathway (AID 444);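 further: carbachol stimulus at about its EC50 of 1 µM final; on the % scale 0 is the no-effect control and ±100 the full control effect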
# PARTICULARS: Jurkat NFAT-bla M1, carbachol, beta-lactamase ratio, 5 h; at 7.69 µM (top of the series) unless noted
Inconclusive results are not listed.
Supply the numeric figure in %, leaving out any unit text.

// known answers, use as guide
O=c1c(-c2ccccc2)nc2cnc(Oc3cccc(Cl)c3)nc2n1C[C@H]1CCCO1 = -8.22
Clc1ccccc1-c1cc(NCCN2CCOCC2)ncn1 = -9.62
CC(C)NC(=O)N1CCC2(CC1)CCN(C(=O)c1cnccn1)CC2 = 7.26
CS(=O)(=O)N1CCC2(CCCN(Cc3cc(C(F)(F)F)cc(C(F)(F)F)c3)C2)CC1 = -14.4
O=C(c1cccc(F)c1)N1CCC2(CCCN(c3ccc(-c4ccccc4)cc3)C2)CC1 = -3.55

Please report the recorded activity change, negative = inhibition for N#Cc1cccc(-c2cncnc2NCc2ccccc2)c1 .
2.64

====

# Test system: CP201
# TEST: qHTS profiling for inhibitors of Plasmodium falciparum proliferation (AID 504749); further: nearly all actives have a fitted effect of over 60% in size
# PARTICULARS: P. falciparum in erythrocytes, SYBR Green DNA, 72 h; series mostly up to 12.8 µM
Inconclusive results are not listed. Activity calls are given as the source filed them. Calls come from the whole dose curve; as a rule, active = well fitted inhibition curve with a large enough effect; inconclusive = small, poorly fitted or top-dose-only effect; inactive = flat fitted curve, though single readings scatter.
Pick one and only one: active, inactive

CC(C)(O/N=C(\C(=O)N[C@@H]1C(=O)N2C(C(=O)[O-])=C(C[n+]3ccccc3)CS[C@@H]12)c1csc(N)n1)C(=O)O = inactive

Record lookup: outcome of this test for CCN(CC)CCC[C@H](C)Nc1ccnc2cc(Cl)ccc12 ?
active

And then CN(C)[C@H]1C(=O)C(C(=O)NCN2CCCC2)=C(O)[C@]2(O)C(=O)C3=C(O)c4c(O)cccc4[C@@](C)(O)[C@H]3C[C@@H]12 , what is it?
inactive

And then CN(C)CC/C=C1\c2ccccc2CSc2ccccc21 , what is it?
inactive

And then CN1[C@@H]2CC[C@H]1CC(OC(=O)[C@@H](O)c1ccccc1)C2 (some centres not stated) , what is it?
inactive

And then CO[C@H]1C[C@@H](O[C@@H]2[C@H](C)[C@H](O[C@@H]3O[C@@H](C)C[C@@H](N(C)C)[C@@H]3O)[C@H](C)C[C@]3(CO3)C(=O)[C@H](C)[C@H](O)[C@H](C)[C@H](C)OC(=O)[C@@H]2C)O[C@@H](C)[C@H]1O , what is it?
inactive

And then NC(N)=NC[C@@H]1COC2(CCCCC2)O1 , what is it?
inactive

====

# TEST: NFAT Signaling Pathway (AID 444);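 further: carbachol stimulus at about its EC50 of 1 µM final; on the % scale 0 is the no-effect control and ±100 the full control effect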
# PARTICULARS: Jurkat NFAT-bla M1, carbachol, beta-lactamase ratio, 5 h; at 7.69 µM (top of the series) unless noted
Inconclusive results are not listed. Activity calls are given as the source filed them. The call rests on the fitted dose curve; in most records, active means well fitted curve in either direction with a large enough effect (not every such curve was filed as active); inconclusive means small, poorly fitted or top-dose-only effect, or another doubt; inactive means flat fitted curve, though single readings scatter.
REPORTED ENDPOINT: activity change, negative = inhibition

COCC(=O)N1CCC2(CCCN(C(=O)Nc3ccccc3)C2)CC1 = 13.8% (inactive)
COCCn1c(=O)c(-c2cc(F)cc(F)c2)nc2cnc(Nc3cccc(OC)c3)nc21 = -16.5% (inactive)
Clc1ccccc1-c1ccc2ncnc(NC3CCNCC3)c2c1 = -8.44% (inactive)

Please report the recorded activity change, negative = inhibition for O=C(c1csnn1)N1CCC[C@@]2(CCN(C(c3ccccc3)c3ccccc3)C2)C1 .
29.4% (inactive)

====

# TEST: S16 Schwann cell viability assay (CellTiter-Glo assay) (AID 624031);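 further: native untransfected S16 rat Schwann cells; cellular ATP luminescence as a viability measure; plate controls were DMSO-treated cells for no effect and cell-free wells for full effect; nearly all actives have a fitted effect of over 70% in size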
# PARTICULARS: S16 rat Schwann cells viability, 24 h; series mostly up to 25.7 µM
Inconclusive results are not listed. Calls of active or inactive are those of the source. Calls follow the shape of the dose curve; as a rule, active = well fitted cell-killing curve with a large enough effect; inconclusive = small, poorly fitted or top-dose-only effect, or effect the other way; inactive = flat fitted curve, though single readings scatter.
REPORTED ENDPOINT: outcome

// known answers, use as guide
CC1(C)Oc2ccc(C#N)cc2[C@H](N2CCCC2=O)[C@H]1O = inactive
O=C(O)/C=C\c1ccc(Cn2ccnc2)cc1 = inactive
NS(=O)(=O)c1cc([C@@]2(O)NC(=O)c3ccccc32)ccc1Cl = inactive
C[N+]1(C)CCC[C@@H](OC(=O)C(O)(c2ccccc2)c2ccccc2)C1 = inactive

Would you kindly look at the next entry?
Please report the recorded outcome for C[N+](C)(C)CC(O)CC(=O)O (stereo not given) .
inactive

====

# EXPERIMENTAL SYSTEM: Dual specificity protein kinase CLK4 (Homo sapiens) (UniProt Q9HAZ1)
# Sequence (Q9HAZ1 whole entry, looked up): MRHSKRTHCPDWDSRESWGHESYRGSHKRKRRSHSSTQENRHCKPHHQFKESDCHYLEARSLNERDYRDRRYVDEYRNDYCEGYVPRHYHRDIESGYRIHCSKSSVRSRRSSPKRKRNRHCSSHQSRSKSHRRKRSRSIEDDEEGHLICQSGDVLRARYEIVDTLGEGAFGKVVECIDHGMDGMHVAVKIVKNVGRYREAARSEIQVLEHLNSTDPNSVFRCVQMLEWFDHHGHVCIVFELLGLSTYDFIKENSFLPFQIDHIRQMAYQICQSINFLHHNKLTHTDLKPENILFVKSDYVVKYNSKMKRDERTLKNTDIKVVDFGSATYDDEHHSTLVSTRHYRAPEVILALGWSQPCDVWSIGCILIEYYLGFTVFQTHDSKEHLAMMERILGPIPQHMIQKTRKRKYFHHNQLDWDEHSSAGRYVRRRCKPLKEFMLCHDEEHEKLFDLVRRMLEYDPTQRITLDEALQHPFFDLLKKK
# TEST: qHTS Assay for Inhibitors of CDC-like Kinase 4 (Kinase-Glo Assay) (AID 1770); further: nearly all actives have a fitted effect of over 65% in size; further: potency means the concentration at half of the fitted maximal effect
# PARTICULARS: recombinant Clk4, Kinase-Glo ATP depletion luminescence; series mostly up to 66.7 µM
Inconclusive results are not listed. Active and inactive are the calls of the source. The call rests on the fitted dose curve; in most records, active means well fitted inhibition curve with a large enough effect; inconclusive means small, poorly fitted or top-dose-only effect; inactive means flat fitted curve, though single readings scatter.
REPORTED ENDPOINT: Potency

// known answers, use as guide
CN1CCN(c2ccnc(-c3cccnc3)n2)CC1 = 25.1 µM (active)
COc1ccc(-n2c(=O)c(-c3ccccc3)nc3cnc(N4CCOCC4)nc32)cc1 = inactive
COc1ccc(CNc2nc(-c3ccc(N(C)C)cc3)nc3ccccc23)c(OC)c1 = inactive
Cc1cnc(CNc2ncncc2-c2ccccc2Cl)cn1 = inactive
Cc1ccccc1-c1nc(NC2CC2)c2ccccc2n1 = 12.6 µM (active)

Please report the recorded Potency for COc1ncc2nc(-c3ccc(F)cc3)c(=O)n(Cc3cccs3)c2n1 .
inactive

====

# Tested on: GB4
# TEST: qHTS profiling for inhibitors of Plasmodium falciparum proliferation (AID 504749); further: nearly all actives have a fitted effect of over 60% in size
# PARTICULARS: P. falciparum in erythrocytes, SYBR Green DNA, 72 h; series mostly up to 12.8 µM
Inconclusive results are not listed. The source made the active and inactive calls. The call rests on the fitted dose curve; in most records, active means well fitted inhibition curve with a large enough effect; inconclusive means small, poorly fitted or top-dose-only effect; inactive means flat fitted curve, though single readings scatter.
Pick one and only one: active, inactive

Known results for compounds:
CN[C@@H]1[C@H](O[C@@H]2O[C@H](CO)[C@@H](N)[C@H](O)[C@@H]2O)O[C@H]2C[C@@H](N)[C@@H](O[C@H]3[C@@H](O)[C@H](O)[C@H](N)C[C@@H]3N)O[C@H]2[C@H]1O = inactive
CO[C@H]1C[C@@H](O[C@@H]2[C@H](C)[C@H](O[C@@H]3O[C@@H](C)C[C@@H](N(C)C)[C@@H]3O)[C@H](C)C[C@]3(CO3)C(=O)[C@H](C)[C@H](O)[C@H](C)[C@H](C)OC(=O)[C@@H]2C)O[C@@H](C)[C@H]1O = inactive
CCC[C@H]1C(=O)N2C(N(C)C)=Nc3ccc(C)cc3N2C1=O = inactive
C[C@H](NCCc1ccc(O)cc1)[C@@H](O)c1ccc(O)cc1 = inactive
CO/N=C(/C(=O)NC1C(=O)N2C(C(=O)O)=C(CSc3nc(=O)c(O)nn3C)CSC12)c1csc(N)n1 (stereo not given) = inactive

Then this compound:
Record lookup: outcome of this test for COc1c(O)cc2c(c1O)[C@@H]1O[C@@H](CO)[C@@H](O)[C@@H](O)[C@@H]1OC2=O ?
inactive

====

# TEST: NFAT Signaling Pathway (AID 444);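 further: carbachol stimulus at about its EC50 of 1 µM final; on the % scale 0 is the no-effect control and ±100 the full control effect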
# PARTICULARS: Jurkat NFAT-bla M1, carbachol, beta-lactamase ratio, 5 h; at 7.69 µM (top of the series) unless noted
Results filed as inconclusive are left out.
Listing: activity change, negative = inhibition of selected molecules
Supply the numeric figure in %, leaving out any unit text.

// known answers, use as guide
O=c1c(-c2cccs2)nc2cncnc2n1Cc1ccc(F)cc1 = -15.7
CN(C)C(=O)c1ccc(-c2cncnc2Nc2ccccc2)cc1 = 1.8
Cc1noc(C)c1C(=O)N1CCC[C@@]2(CCN(C(c3ccccc3)c3ccccc3)C2)C1 = -12.7

Please report the recorded activity change, negative = inhibition for Cc1ccccc1-c1nc(N(C)C)c2ccccc2n1 .
-0.255

And then COc1cccc(Cn2c(=O)c(-c3ccccc3)nc3cnc(N(C)C)nc32)c1 , what is it?
-16.4

And then COc1ccccc1CNc1ncnc2ccc(-c3cccc(C#N)c3)cc12 , what is it?
-8.04

And then COc1ccc(C(=O)N2CCC3(CCCN(C(=O)Nc4cccc(C#N)c4)C3)CC2)cc1 , what is it?
-8.43
